Reported values of log10(IC50) for individual entries
- System: HIV
- experimentalDetails: MT4 assay: antiviral HIV activity in MT-4 cells
- Format: cell-based
- condition: Human immunodeficiency virus 1, MT4, 96 h, read-out: HIV MT4 Assay IC50 (μM), HTLV-1 transformed cell line MT-4; read-out 96 hours later with cell titer glo; 10 point dose response
Structures can show the parent of a compound that is named as a salt.
measuredMetric: log10(IC50) (log10 of the value in µM)

| compound | log10(IC50) |
| --- | --- |
| Cc1ccc(F)c(Cn2ccc3c(-c4ccc5c(c4)CCCO5)c(C(OC(C)(C)C)C(=O)O)c(C)nc32)c1Cl (stereo not shown) | -1.26 |
| Cc1nc2c(c(-c3ccc4c(c3C)NCCO4)c1[C@H](OC(C)(C)C)C(=O)O)CCN2Cc1cccc(F)c1F (atropisomer, axis not shown; (M)) [Example 118, trifluoroacetic acid salt] | -0.85 |
| Cc1nc2c(ccn2Cc2ccc(F)c(F)c2)c(C2=CCCCC2)c1[C@H](OC(C)(C)C)C(=O)O | -0.82 |
| Cc1nc2c(ccn2CC2CCOCC2)c(-c2ccc3c(c2)CCCO3)c1C(OC(C)(C)C)C(=O)O (stereo not shown) | -0.23 |
| Cc1ccc(-c2c(C(OC(C)(C)C)C(=O)O)c(C)nc3c2ccn3Cc2cccc(F)c2F)cc1 (stereo not shown) | -1.00 |
| Cc1ccc(-c2c(C(OC(C)(C)C)C(=O)O)c(C)nc3c2ccn3Cc2ccc(F)cc2)c(F)c1 (stereo not shown) | -1.34 |
| Cc1nc2c(ccn2Cc2ccc(C(F)(F)F)cc2F)c(-c2ccc3c(c2)CCCO3)c1C(OC(C)(C)C)C(=O)O (stereo not shown) | -0.42 |
